Test system: MALME-3M melanoma
Assay: NCI-60 one-dose screen, 48 h (100 = growth as untreated, 0 = no growth, -100 = all killed)
Conditions: 10 µM unless noted
This is part of a sample that, as a whole, favours compounds with a hit. Of some 83,000 tested, about 20% had one in any assay. Calls of active or inactive are those of the source. The calls were made as follows: active = growth percent below 10; inactive = the rest.
recorded_endpoint: growth

Take a look at these entries with their results.
INSERT INTO results (compound, value) VALUES
  ('O=C(Nc1ccc(F)cc1)Nc1ccccc1CNc1nc(Nc2ccc(OCCN3CCCC3)cc2)ncc1Cl', '-29.3% (active)'),
  ('C=CCCC(=O)N1C=CC(=O)[C@H](O)[C@@H]1/C=C/c1ccccc1', '89.3% [100 µM] (inactive)'),
  ('Nc1c(C(=O)Nc2ccccn2)sc2nc3c(cc12)C(O)CCC3 (centres undefined)', '60.8% (inactive)'),
  ('CCOC(=O)c1n[nH]n2c1nc(=O)c1cnn(C)c12', '101% (inactive)'),
  ('COc1cc(-c2nc3occn3c2-c2ccnc(NCCCNS(=O)(=O)c3ccccc3)n2)ccc1F', '18.4% (inactive)');

Task: Which value of growth has been reported for CCN(CC)CCCNCc1cc(-c2ccccc2)nc2cc(Cl)ccc12 in the records?
Output: -66.4% (active)

Task: I would be grateful if you could share the reported growth for N=C(N)c1ccc(-c2ccc(-c3ccc(Cl)cc3Cl)s2)cc1F .
Output: -2.93% (active)

Task: Find the recorded growth belonging to Cc1ncc(C(=O)Nc2ccc(CN3CCN(C)CC3)c(C(F)(F)F)c2)cc1C#Cc1cnc(N)c2ccncc12 and report it.
Output: -72.9% (active)

Task: Item C=C(C)[C@@H]1CC[C@]2(CO)CC[C@]3(C)[C@H](CC[C@@H]4[C@@]5(C)CCC(NCCc6ccc(O)cc6)C(C)(C)[C@@H]5CC[C@]43C)[C@@H]12 (some centres undefined) has what recorded growth?
Output: -81.5% (active)

Task: Look up growth: CCOC(=O)c1cn2ncnc(Oc3ccc(NC(=O)NC4CC4)c(F)c3)c2c1C
Output: 107% (inactive)

Task: Sample CCN(CC)CCN(CCN(CC)CC)c1ccccc1 — what was its growth?
Output: 110% (inactive)

Task: Could you tell me which growth is on file for Cc1ccc(-c2nc(C#N)c(S(=O)(=O)NCCO)o2)cc1 ?
Output: 75.5% (inactive)

Task: What measured growth goes with NC(=S)N/N=C/c1cn(-c2ccccc2)nc1-c1cc2ccccc2oc1=O ?
Output: 48.8% (inactive)

Task: Item under review: O=C1N[C@@H]2[C@@H](O)[C@@H](O)[C@H](O)C[C@H]2c2cc3c(c(O)c21)OCCO3 . Reported growth?
Output: -23.8% (active)

Task: Param item = COc1ccc(/C=C/C(=O)c2cc3c(N)c(C(=O)Nc4ccc(OC)cc4)sc3nc2C)cc1 ; retrieve measured growth.
Output: 49.1% (inactive)

Task: Reported growth, compound COc1ccc(Nc2ncccc2NC(=O)c2cn(Cc3cccc(Oc4ccccc4)c3)nn2)cc1OC : ____
Output: 87.4% (inactive)

Task: What growth value was documented for this compound, O=C(Nc1ccccc1O)c1ccccc1Nc1ccnc(C(F)(F)F)c1 ?
Output: 112% (inactive)

Task: // returns reported growth for input COc1ccc(-c2oc(=O)ccc2-c2cc(OC)c(OC)c(OC)c2)cc1O
Output: 37.8% (inactive)
